- test system: human recombinant 11β-HSD1 (Homo sapiens, UniProt P28845)
- Construct: made in house
- Sequence (P28845 whole entry): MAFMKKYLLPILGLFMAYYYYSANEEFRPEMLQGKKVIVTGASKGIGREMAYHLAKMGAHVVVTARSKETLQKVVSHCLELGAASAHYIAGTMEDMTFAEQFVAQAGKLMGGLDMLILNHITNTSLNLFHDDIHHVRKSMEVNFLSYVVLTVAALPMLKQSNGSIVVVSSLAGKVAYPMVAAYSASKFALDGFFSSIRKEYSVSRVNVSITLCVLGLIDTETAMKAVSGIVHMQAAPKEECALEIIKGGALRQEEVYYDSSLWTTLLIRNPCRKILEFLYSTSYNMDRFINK
- assay text: Measuring test of human 11β-HSD1-inhibitory activity (HTRF cortisol detection)
- Type: biochemical
- stated conditions: human recombinant 11β-HSD1, 20 nM cortisone, 40 μM NADPH, pH 6.6, room temperature 1 hour
A collection of molecules and their measured IC50
Please answer in the form of a number followed by its unit of measurement.

molecule: CC(C)(c1ccsc1)c1nnc(C2CCC2)n1C1CC1 [Example 173]
endpoint result: 0.012 µM

Fill blank: measured IC50 of the molecule CC(C)(c1ccc(Br)s1)c1nnc(C2CC2)n1CCc1c(F)cccc1F [Example 167] is ____.
0.07 µM

What value of IC50 has been recorded for this entry: CC(C)(c1nnc(C2CC2)n1C1CC1)n1cccc1Cl [Example 9]
0.062 µM

Entry CC(C)(c1cccc(Cl)n1)c1nnc(C2CC2)n1CCc1ccccc1 [Example 85] : reported IC50 = ?
0.034 µM

May I ask what IC50 has been recorded for Brc1ccn(C2(c3nnc(C4CC4)n3C3CC3)CCC2)c1 [Example 213] ?
0.041 µM

----------
- test system: human recombinant 11β-HSD1 (Homo sapiens, UniProt P28845)
- Construct: made in house
- assay text: Measuring test of human 11β-HSD1-inhibitory activity (HTRF cortisol detection)
- Assay type: biochemical
- stated conditions: human recombinant 11β-HSD1, 20 nM cortisone, 40 μM NADPH, pH 6.6, room temperature 1 hour
measurement type: IC50 (µM)
Use µM as the unit, but write only the number.

molecule: CC(C)(c1ccc(C(F)(F)F)s1)c1nnc(C2CC2)n1C1CC1 [Example 169]
u: µM
endpoint result: 0.024
//
molecule: CC(C)(c1cc(Br)cs1)c1nnc(C2CC2)n1C1CC1 [Example 77]
u: µM
endpoint result: 0.012
//
molecule: CC(C)(c1ccccn1)c1nnc(C2CC2)n1CCc1c(F)cccc1F [Example 154]
u: µM
endpoint result: 0.038
//
molecule: Cn1c(C2(C)CC2)nnc1C(C)(C)c1ccc(Cl)s1 [Example 283]
u: µM
endpoint result: 0.0024

Proceeding to the next molecule to report its IC50.
Item CC(C)(c1ccsc1)c1nnc(C2CC2)n1C1CC1 [Example 172] has what recorded IC50?
0.019

----------
The entries below are paired with their reported IC50.
- test system: human recombinant 11β-HSD2 (Homo sapiens, UniProt P80365)
- Sequence (P80365 whole entry): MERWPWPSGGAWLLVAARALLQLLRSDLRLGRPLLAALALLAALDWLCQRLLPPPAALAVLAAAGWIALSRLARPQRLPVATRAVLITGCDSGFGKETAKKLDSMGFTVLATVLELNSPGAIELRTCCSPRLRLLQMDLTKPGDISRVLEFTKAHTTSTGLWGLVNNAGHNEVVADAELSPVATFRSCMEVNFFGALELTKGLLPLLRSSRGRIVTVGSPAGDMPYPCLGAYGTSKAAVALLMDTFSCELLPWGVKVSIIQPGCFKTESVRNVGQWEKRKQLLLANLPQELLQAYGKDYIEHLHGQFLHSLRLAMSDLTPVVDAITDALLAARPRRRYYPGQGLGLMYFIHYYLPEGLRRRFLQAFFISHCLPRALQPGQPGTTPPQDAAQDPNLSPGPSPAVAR
- assay text: Measuring test of human 11β-HSD2-inhibitory activity (HTRF cortisol detection)
- Assay type: biochemical
- stated conditions: human recombinant 11β-HSD2, 200 nM cortisol, 200 μM NAD, pH 8.0, 37° C. 2 hours

For human recombinant 11β-HSD2 (Homo sapiens, UniProt P80365), provide IC50 of `CC(C)(c1cc(Br)cs1)c1nnc(C2CC2)n1C1CC1` please.
> 10 µM

Requested read-out IC50, target or system human recombinant 11β-HSD2 (Homo sapiens, UniProt P80365), entry `CC(C)(c1cccc(Cl)n1)c1nnc(C2CC2)n1CCc1ccccc1`
> 10 µM

Find IC50 (human recombinant 11β-HSD2 (Homo sapiens, UniProt P80365)) for the entry `CC(C)(c1ccc(Br)s1)c1nnc(C2CC2)n1C1CC1`
> 3 µM

// lookup IC50 | system=human recombinant 11β-HSD2 (Homo sapiens, UniProt P80365) | key= `CC(C)(c1ccc(Br)s1)c1nnc(C2CC2)n1CCc1c(F)cccc1F`
> 30 µM

Param readout= IC50; system= human recombinant 11β-HSD2 (Homo sapiens, UniProt P80365); entry= `CC(C)(c1ccsc1)c1nnc(C2CC2)n1C1CC1` ; returns value.
> 10 µM

----------
- Test system: ob/ob male mice
- assay text: Ob/ob mouse blood glucose-lowering test
- Type: in vivo
- stated conditions: oral 10 mg/kg bid for 9 days, non-fasting, 12 hours after final administration, n=6
Reported blood glucose-lowering action values for the following molecules.
Give the quantity in %, number only.

Use the examples below as a reference point.
mol smiles: CC(C)(c1ccc(Br)s1)c1nnc(C2CC2)n1C1CC1
endpoint result: 27
//
mol smiles: CC(C)(c1ccccn1)c1nnc(C2CC2)n1CCc1c(F)cccc1F
endpoint result: 21
//
mol smiles: CC(C)(c1sc(C(F)(F)F)cc1F)c1nnc(C2CC2)n1C1CC1
endpoint result: 35
//
mol smiles: CC(C)(c1ccsc1)c1nnc(C2CC2)n1C1CC1
endpoint result: 27

Okay, next one:
Dear colleague, I am looking for the recorded blood glucose-lowering action of the following molecule: `CC(C)(c1ccc(Br)s1)c1nnc(C2CC2)n1CCc1c(F)cccc1F`
24

----------
Reported values of IC50 for individual entries
- test system: human recombinant 11β-HSD1 (Homo sapiens)
- Construct: made in house
- assay text: Measuring test of human 11β-HSD1-inhibitory activity (HTRF cortisol detection)
- Type: biochemical
- stated conditions: human recombinant 11β-HSD1, 20 nM cortisone, 40 μM NADPH, pH 6.6, room temperature 1 hour
Write the value in µM as a bare number.

Here are 4 compounds together with their reported answers.
mol smiles: CC(C)(c1ccc(Br)s1)c1nnc(C2CC2)n1C1CC1
endpoint result: 0.0079
--
mol smiles: CC(C)(c1sc(C(F)(F)F)cc1F)c1nnc(C2CC2)n1C1CC1
endpoint result: 0.0047
--
mol smiles: CN(C1CCC1)C(C)(C)c1nnc(C2CC2)n1C1CC1
endpoint result: 0.07
--
mol smiles: Cn1c(C(C)(C)C)nnc1C(C)(C)c1ccc(Cl)s1
endpoint result: 0.0052

# ---- query compound ----
May I ask what IC50 has been recorded for `Fc1ccc(CCn2c(C3CC3)nnc2C2(c3ccccn3)CCC2)cc1` ?
0.025

----------
- test system: human recombinant 11β-HSD2 (Homo sapiens, UniProt P80365)
- assay text: Measuring test of human 11β-HSD2-inhibitory activity (HTRF cortisol detection)
- Format: biochemical
- stated conditions: human recombinant 11β-HSD2, 200 nM cortisol, 200 μM NAD, pH 8.0, 37° C. 2 hours
measurement type: IC50

molecule: CC(C)(c1ccc(C(F)(F)F)s1)c1nnc(C2CC2)n1C1CC1 [Example 169]
endpoint result: > 10 µM
--
molecule: CC(C)(c1ccsc1)c1nnc(C2CCC2)n1C1CC1 [Example 173]
endpoint result: > 10 µM
--
molecule: Cn1c(C(C)(C)C)nnc1C(C)(C)c1ccc(Cl)s1 [Example 281]
endpoint result: > 3 µM
--
molecule: Brc1ccn(C2(c3nnc(C4CC4)n3C3CC3)CCC2)c1 [Example 213]
endpoint result: > 10 µM
--
molecule: CN(C1CCC1)C(C)(C)c1nnc(C2CC2)n1C1CC1 [Example 57]
endpoint result: > 30 µM
--
molecule: CC(C)(c1ccccn1)c1nnc(C2CC2)n1CCc1c(F)cccc1F [Example 154]
endpoint result: > 30 µM
--
molecule: CC(C)(c1nnc(C2CC2)n1C1CC1)n1cccc1Cl [Example 9]
endpoint result: > 30 µM
--
molecule: Fc1ccc(CCn2c(C3CC3)nnc2C2(c3ccccn3)CCC2)cc1 [Example 198]
endpoint result: > 10 µM
--
molecule: CC(C)(c1sc(C(F)(F)F)cc1F)c1nnc(C2CC2)n1C1CC1 [Example 280]
endpoint result: > 3 µM

Note: attention shifts to another entry.
Using the record for Cn1c(C2(C)CC2)nnc1C(C)(C)c1ccc(Cl)s1 [Example 283] , report its IC50.
> 3 µM

Where do the numbers come from? From patent US20090082367A1.
